Data origin: ChEMBL document CHEMBL1926574

Biological target: Adenosine receptor A1 (Homo sapiens)
Sequence (P30542 whole entry): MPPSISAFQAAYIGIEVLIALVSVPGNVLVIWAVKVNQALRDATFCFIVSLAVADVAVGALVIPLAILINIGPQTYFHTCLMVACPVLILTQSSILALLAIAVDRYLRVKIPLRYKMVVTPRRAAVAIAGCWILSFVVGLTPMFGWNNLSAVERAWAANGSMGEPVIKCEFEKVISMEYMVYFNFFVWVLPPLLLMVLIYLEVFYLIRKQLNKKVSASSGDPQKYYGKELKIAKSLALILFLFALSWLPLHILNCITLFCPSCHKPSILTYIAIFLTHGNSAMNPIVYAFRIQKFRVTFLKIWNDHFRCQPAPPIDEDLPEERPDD
We label by threshold. Values of Ki strictly beneath 4 µM are MET. Values of 4 µM and up are NOT MET.

Please check: Ki for Nc1nc(N2CCN(C(=O)C(c3ccccc3)c3ccccc3)CC2)nc2nc(-c3ccco3)nn12 , strictly under 4 µM or not?
NOT MET

Please check: Ki for Nc1nc(N2CCN(Cc3ccc(Cl)cc3)CC2)nc2nc(-c3ccco3)nn12 , strictly under 4 µM or not?
MET

Please check: Ki for Nc1nc(N2CCN(C(=O)Cc3ccccc3)CC2)nc2nc(-c3ccco3)nn12 , strictly under 4 µM or not?
MET

Please check: Ki for CC(C)(C)OC(=O)NCCNc1nc(N)n2nc(-c3ccco3)nc2n1 , strictly under 4 µM or not?
MET

Please check: Ki for CC(C)(C)OC(=O)NCCCCCNc1nc(N)n2nc(-c3ccco3)nc2n1 , strictly under 4 µM or not?
MET

###

Assignment: determine reported pKi for the given molecules.
Biological target: Adenosine receptor A1 (Homo sapiens, UniProt P30542)
Sequence (P30542 whole entry): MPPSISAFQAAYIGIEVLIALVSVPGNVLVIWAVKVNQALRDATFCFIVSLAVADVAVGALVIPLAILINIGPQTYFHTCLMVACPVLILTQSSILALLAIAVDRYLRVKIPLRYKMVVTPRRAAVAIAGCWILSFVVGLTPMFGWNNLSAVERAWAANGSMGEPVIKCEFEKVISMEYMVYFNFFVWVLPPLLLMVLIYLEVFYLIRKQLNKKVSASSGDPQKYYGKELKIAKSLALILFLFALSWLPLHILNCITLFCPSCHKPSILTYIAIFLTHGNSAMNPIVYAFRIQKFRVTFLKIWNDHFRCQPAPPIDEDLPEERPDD
# pKi: negative log10 of molar concentration; output just the value

Determine its reported pKi: Nc1nc(N2CCN(Cc3ccccc3)CC2)nc2nc(-c3ccco3)nn12
6.01

Determine its reported pKi: Nc1nc(N2CCCC2)nc2nc(-c3ccco3)nn12
5.71

Determine its reported pKi: NCC1CCC(CNc2nc(N)n3nc(-c4ccco4)nc3n2)CC1.O=C(O)C(F)(F)F (stereo not given)
5.87

Determine its reported pKi: CC(C)(C)OC(=O)NCC1CCC(CNc2nc(N)n3nc(-c4ccco4)nc3n2)CC1 (stereo not given)
5.41

Determine its reported pKi: Nc1nc(NC(=O)c2ccccc2)n2nc(-c3ccco3)nc2n1
5.74

Determine its reported pKi: NCCOCCOCCNc1nc(N)n2nc(-c3ccco3)nc2n1.O=C(O)C(F)(F)F
6.11

Determine its reported pKi: CC(C)(C)OC(=O)N1CCN(c2nc(N)n3nc(-c4ccco4)nc3n2)CC1
5.27

Determine its reported pKi: Nc1nc(N2CCN(Cc3cccc(Cl)c3)CC2)nc2nc(-c3ccco3)nn12
5.82

Determine its reported pKi: Nc1nc(N2CCN(C(=O)Cc3ccc(Cl)cc3)CC2)nc2nc(-c3ccco3)nn12
6.00

Determine its reported pKi: NCCCCCNc1nc(N)n2nc(-c3ccco3)nc2n1
5.53
